assay: Pharmacokinetics in rat; format: in vivo; settings: plasma, IV, 1 mg/kg
measuredAttribute: AUC(0-inf) (ng·h/mL)
Give the number; ng·h/mL is assumed, so skip it.

QUERY: // lookup AUC(0-inf) for Cc1c(Oc2cccc(NS(=O)(=O)NC3CC3)c2Cl)c(C(=O)NC2CC2)c(Nc2ccc(I)cc2F)n(C)c1=O
RESULT: 217

Further cases:
QUERY: // lookup AUC(0-inf) for CNS(=O)(=O)Nc1cccc(Oc2c(C(=O)NC3CC3)c(Nc3ccc(I)cc3F)n(C)c(=O)c2C)c1Cl
RESULT: 1080

QUERY: // lookup AUC(0-inf) for Cc1c(Oc2cccc(NS(=O)(=O)NCC(F)(F)F)c2Cl)c(C(=O)NC2CC2)c(Nc2ccc(I)cc2F)n(C)c1=O
RESULT: 1590

These entries and their values trace back to patent US20230382863A1.
